test system: S. pneumoniae D39V; assay: fitness (endpoint OD595 vs no drug) (fraction); higher = more growth; details: first compound 1 µg/mL; partner 0.0625 µg/mL
compounds and their reported fitness

Solved cases below.
compound: COc1ccc(C[C@H](N)C(=O)N[C@H]2[C@@H](O)[C@H](n3cnc4c(N(C)C)ncnc43)O[C@@H]2CO)cc1 [Puromycin] + Cn1nnc(-c2ccc(-c3ccc(N4C[C@H](CO)OC4=O)cc3F)cn2)n1 [Tedizolid]
target_desc: S. pneumoniae D39V
fitness: 0.966
--
compound: COc1ccc(C[C@H](N)C(=O)N[C@H]2[C@@H](O)[C@H](n3cnc4c(N(C)C)ncnc43)O[C@@H]2CO)cc1 [Puromycin] + CN[C@H](CC(C)C)C(=O)N[C@H]1C(=O)N[C@@H](CC(N)=O)C(=O)N[C@H]2C(=O)N[C@H]3C(=O)N[C@H](C(=O)N[C@H](C(=O)O)c4cc(O)cc(O)c4-c4cc3ccc4O)[C@H](O)c3ccc(c(Cl)c3)Oc3cc2cc(c3O[C@@H]2O[C@H](CO)[C@@H](O)[C@H](O)[C@H]2O[C@H]2C[C@](C)(N)[C@H](O)[C@H](C)O2)Oc2ccc(cc2Cl)[C@H]1O [Vancomycin]
target_desc: S. pneumoniae D39V
fitness: 0.989
--
compound: COc1cccc2c1C(=O)c1c(O)c3c(c(O)c1C2=O)C[C@@](O)(C(=O)CO)C[C@@H]3O[C@H]1C[C@H](N)[C@H](O)[C@H](C)O1 [Doxorubicin] + Cn1nnc(-c2ccc(-c3ccc(N4C[C@H](CO)OC4=O)cc3F)cn2)n1 [Tedizolid]
target_desc: S. pneumoniae D39V
fitness: 0.953

Q) Looking for the measured fitness of COc1cccc2c1C(=O)c1c(O)c3c(c(O)c1C2=O)C[C@@](O)(C(=O)CO)C[C@@H]3O[C@H]1C[C@H](N)[C@H](O)[C@H](C)O1 [Doxorubicin] + COc1c(N2C[C@@H]3CCCN[C@@H]3C2)c(F)cc2c(=O)c(C(=O)O)cn(C3CC3)c12 [Moxifloxacin] , can you help?
A) 0.0753

====

tested on: B. subtilis 168; assay: fitness (endpoint OD595 vs no drug) (fraction); higher = more growth; settings: first compound 0.039 µg/mL; partner 0.25 µg/mL
compounds and their reported fitness

compound: O=C(O)c1cn(C2CC2)c2cc(N3CCNCC3)c(F)cc2c1=O [Ciprofloxacin] + N[C@@H]1CONC1=O [Cycloserine D]
quantity: fitness
result: 0.0682

compound: O=C(O)c1cn(C2CC2)c2cc(N3CCNCC3)c(F)cc2c1=O [Ciprofloxacin] + CC1=C\[C@@H](O)CC(=O)Cc2nc(co2)C(=O)N2CCC=C2C(=O)O[C@H](C(C)C)[C@H](C)/C=C/C(=O)NC\C=C\1 [Virginiamycin M1]
quantity: fitness
result: 0.0545

compound: O=C(O)c1cn(C2CC2)c2cc(N3CCNCC3)c(F)cc2c1=O [Ciprofloxacin] + CCC[C@@H]1C[C@@H](C(=O)N[C@@H]([C@H]2O[C@H](SC)[C@H](O)[C@@H](O)[C@H]2O)[C@H](C)Cl)N(C)C1 [Clindamycin]
quantity: fitness
result: 0.303

Please turn your attention to the following entry.
Q) Looking for the measured fitness of O=C(O)c1cn(C2CC2)c2cc(N3CCNCC3)c(F)cc2c1=O [Ciprofloxacin] + COc1cc(Cc2cnc(N)nc2N)cc(OC)c1OC [Trimethoprim] , can you help?
A) 0.355

====

compounds and their reported Bliss interaction score
system: S. aureus DSM 20231; assay: Bliss interaction score (quartile over a dose matrix) (fitness difference); higher = more antagonism (negative = synergy)

Solved cases below.
compound: N#CC(C#N)=NNc1cccc(Cl)c1 [CCCP] + CC1=C\[C@@H](O)CC(=O)Cc2nc(co2)C(=O)N2CCC=C2C(=O)O[C@H](C(C)C)[C@H](C)/C=C/C(=O)NC\C=C\1 [Virginiamycin M1]
result: 0.0407
--
compound: COc1cccc2c1C(=O)c1c(O)c3c(c(O)c1C2=O)C[C@@](O)(C(=O)CO)C[C@@H]3O[C@H]1C[C@H](N)[C@H](O)[C@H](C)O1 [Doxorubicin] + Cc1ncc([N+](=O)[O-])n1CCO [Metronidazole]
result: 0.0515
--
compound: N#CC(C#N)=NNc1cccc(Cl)c1 [CCCP] + Oc1cc(Cl)ccc1Oc1ccc(Cl)cc1Cl [Triclosan]
result: 0.0338
--
compound: CO/N=C(\C(=O)N[C@@H]1C(=O)N2C(C(=O)O)=C(COC(C)=O)CS[C@H]12)c1csc(N)n1 [Cefotaxime] + C[C@@H]1O[C@@H]1P(=O)(O)O [Fosfomycin]
result: 0.143

Q) Form field: Bliss interaction score recorded for N#CC(C#N)=NNc1cccc(Cl)c1 [CCCP] + Cc1ncc([N+](=O)[O-])n1CCO [Metronidazole] with S. aureus DSM 20231 (enter value)
A) 0.0642

====

tested on: S. aureus Newman; assay: Bliss interaction score (quartile over a dose matrix) (fitness difference); higher = more antagonism (negative = synergy)
compounds and their reported Bliss interaction score
The answer should be written as a number, with no unit following it.

Solved cases below.
compound: N#CC(C#N)=NNc1cccc(Cl)c1 [CCCP] + CC1(C)S[C@@H]2[C@H](NC(=O)Cc3ccccc3)C(=O)N2[C@H]1C(=O)O [PenicillinG]
Bliss interaction score: -0.0514
//
compound: N#CC(C#N)=NNc1cccc(Cl)c1 [CCCP] + Clc1ccc(COC(Cn2ccnc2)c2ccc(Cl)cc2Cl)c(Cl)c1 [Miconazole]
Bliss interaction score: -0.0554
//
compound: N#CC(C#N)=NNc1cccc(Cl)c1 [CCCP] + Oc1cc(Cl)ccc1Oc1ccc(Cl)cc1Cl [Triclosan]
Bliss interaction score: -0.021
//
compound: CC(=O)Oc1ccccc1C(=O)O [Acetylsalicylicacid] + Clc1ccc(COC(Cn2ccnc2)c2ccc(Cl)cc2Cl)c(Cl)c1 [Miconazole]
Bliss interaction score: 0.0722
//
compound: CC(=O)Oc1ccccc1C(=O)O [Acetylsalicylicacid] + CO/N=C(\C(=O)N[C@@H]1C(=O)N2C(C(=O)O)=C(COC(N)=O)CS[C@H]12)c1ccco1 [Cefuroxime]
Bliss interaction score: 0.0943

Please turn your attention to the following entry.
Q) Looking for the measured Bliss interaction score of C[C@H]1c2cccc(O)c2C(=O)C2=C(O)[C@]3(O)C(=O)C(C(N)=O)=C(O)[C@@H](N(C)C)[C@@H]3[C@@H](O)[C@@H]21 [Doxycycline] + CC(=O)NC[C@H]1CN(c2ccc(N3CCOCC3)c(F)c2)C(=O)O1 [Linezolid] , can you help?
A) -0.0282

====

test system: S. aureus Newman; assay: Bliss interaction score (quartile over a dose matrix) (fitness difference); higher = more antagonism (negative = synergy)
quantity: Bliss interaction score

Solved cases below.
molecule: CN(C)[C@@H]1C(O)=C(C(N)=O)C(=O)[C@@]2(O)C(O)=C3C(=O)c4c(O)ccc(Cl)c4[C@@](C)(O)[C@H]3C[C@@H]12 [Clortetracycline] + CO[C@@]12[C@H](COC(N)=O)C3=C(C(=O)C(C)=C(N)C3=O)N1C[C@@H]1N[C@@H]12 [MitomycinC]
quantity: Bliss interaction score
result: 0.104
//
molecule: CN(C)[C@@H]1C(O)=C(C(N)=O)C(=O)[C@@]2(O)C(O)=C3C(=O)c4c(O)ccc(Cl)c4[C@@](C)(O)[C@H]3C[C@@H]12 [Clortetracycline] + Clc1ccc(COC(Cn2ccnc2)c2ccc(Cl)cc2Cl)c(Cl)c1 [Miconazole]
quantity: Bliss interaction score
result: 0.0716
//
molecule: COc1cccc2c1C(=O)c1c(O)c3c(c(O)c1C2=O)C[C@@](O)(C(=O)CO)C[C@@H]3O[C@H]1C[C@H](N)[C@H](O)[C@H](C)O1 [Doxorubicin] + CN1C2=CC=CC=C2N=C3C1=CC=CC3=O [Pyocyanin]
quantity: Bliss interaction score
result: -0.0556
//
molecule: CN(C)[C@@H]1C(O)=C(C(N)=O)C(=O)[C@@]2(O)C(O)=C3C(=O)c4c(O)ccc(Cl)c4[C@@](C)(O)[C@H]3C[C@@H]12 [Clortetracycline] + C[C@H]1c2cccc(O)c2C(=O)C2=C(O)[C@]3(O)C(=O)C(C(N)=O)=C(O)[C@@H](N(C)C)[C@@H]3[C@@H](O)[C@@H]21 [Doxycycline]
quantity: Bliss interaction score
result: -0.0257
//
molecule: Cc1ncc([N+](=O)[O-])n1CCO [Metronidazole] + COc1cc(Cc2cnc(N)nc2N)cc(OC)c1OC [Trimethoprim]
quantity: Bliss interaction score
result: 0.0902

Q) Form field: Bliss interaction score recorded for COc1cccc2c1C(=O)c1c(O)c3c(c(O)c1C2=O)C[C@@](O)(C(=O)CO)C[C@@H]3O[C@H]1C[C@H](N)[C@H](O)[C@H](C)O1 [Doxorubicin] + C[n+]1ccc(-c2cc[n+](C)cc2)cc1 [Paraquat] with S. aureus Newman (enter value)
A) -0.052

Q) Now the same for COc1cccc2c1C(=O)c1c(O)c3c(c(O)c1C2=O)C[C@@](O)(C(=O)CO)C[C@@H]3O[C@H]1C[C@H](N)[C@H](O)[C@H](C)O1 [Doxorubicin] + CCN(CC)CCOC(=O)c1ccc(N)cc1 [Procaine]
A) -0.058
